Data credit: paper PMC9457990

Target: interferon-gamma (IFN-γ) (Homo sapiens, UniProt P01579 24-161)
Sequence (P01579 24-161): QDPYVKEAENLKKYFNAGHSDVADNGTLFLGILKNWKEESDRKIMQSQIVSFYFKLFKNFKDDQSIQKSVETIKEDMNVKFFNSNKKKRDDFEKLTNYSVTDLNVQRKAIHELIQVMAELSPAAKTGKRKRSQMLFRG
Assay: BLI; PBS pH 7.4, 25 °C; BLI on SA sensors with 500 nM biotinylated aptamer loaded, IFN-γ 125-2000 nM; fluorescence assay in PBS, 250 nM M5-5, MB 1:3, 30 min at 25 °C
Conditions: protein: commercial; chain copies: 2; label: biotin (BLI)
measuredMetric: pKd
The scale used: pKd is minus the common logarithm of the concentration in molar units.

Req: Item M4-10 (ssDNA) DNA: CCGCCCAAATCCCTAAGTGAAGACTGGATTGACATCAAACCAGTCACACTACACACGCA : provide pKd
Resp: 6.56

Req: Name the recorded pKd of the item M5-5 (ssDNA) DNA: CCGCCCAAATCCCGAAGGGAAGAGTGTAATGACGTCAAACCAGACACATTACACACGCA in your answer.
Resp: 6.98

Req: Provide measured pKd value, entry: M3-6 (ssDNA) DNA: CCGCCCAAATCCCTAAGTGAAGACTGGAATGACATCAAACCAGTCACACTACACACGCA
Resp: 6.57

Req: Give reported pKd value for B1-4 (ssDNA) DNA: CCGCCCAAATCCCTAAGAGAAGACTGTAATGACATCAAACCAGACACACTACACACGCA
Resp: 6.04

Req: Answer with the recorded pKd of M1-8 (ssDNA) DNA: CCGCCCAAATCCCTAAGGGAAGACTGTAATGACATCAAACCAGACACACTACACACGCA only.
Resp: 6.36

Req: // Input: M2-6 (ssDNA) DNA: CCGCCCAAATCCCTAAGGGAAGACTGTAATGACATCAAACCAGACACATTACACACGCA . Output its pKd only.
Resp: 6.32
